# target-desc: Mannose-6-phosphate isomerase (Homo sapiens)
# method-description: MPI inhibition at elevated mannose 6-phosphate – biochemical, fluorescence intensity, high mannose 6-phosphate, primary screen (AID 1220)
# test-conditions: recombinant PMI enzyme, coupled fluorescence intensity; at 20 µM; active compounds read high
Out of some 190,000 compounds screened, about 1,300 (0.68%) were called active. The full list was thinned out, with actives kept by preference.
measured-attribute: inhibition

molecule	measured-attribute	result
Nc1ccc(Cc2ccc(N)c(O)c2)cc1O	inhibition	46.8% (inactive)
Cn1cccc1/C=N/NC(=O)C12CC3CC(CC(C3)C1)C2	inhibition	2.4% (inactive)
COc1ccc(N(C)S(=O)(=O)c2cccc(C(=O)NCC3CCCO3)c2)cc1 (configuration not stated)	inhibition	-3.8% (inactive)
CCOC(=O)c1cc(NC(=O)Nc2ccccc2OC)c(C)nc1C	inhibition	6% (inactive)
O=C(CN1CCSCC1)N/N=C/c1ccc(F)c(F)c1	inhibition	-7.6% (inactive)
Nc1cc2c(cc1O)CCCC2	inhibition	54.3% (active)
O=C(O)c1ccc2c(c1)CCC2	inhibition	0.1% (inactive)
Cc1ccc(N2C(=O)c3cccc(Oc4ccc(Cl)cc4)c3C2=O)c(C)c1	inhibition	50.4% (active)
COc1ccc(CCNC(=O)c2ccc(SC)cc2OC)cc1	inhibition	-1.4% (inactive)
NC(=O)c1cccc(S(=O)(=O)N2CC(c3ccccc3)CC2=O)c1 (configuration not stated)	inhibition	5.1% (inactive)

List the reported inhibition of each molecule below.
1. O=C(O)c1cccc(N2C(=O)c3cccc(Oc4ccc(Cl)cc4)c3C2=O)c1
2. Cc1ccc(/C=C2\SC(=S)N(C3CCS(=O)(=O)C3)C2=O)cc1 (configuration not stated)

Result:
["-8.6% (inactive)", "-2.5% (inactive)"]

---

# target-desc: Mannose-6-phosphate isomerase (Homo sapiens)
# method-description: MPI inhibition at elevated mannose 6-phosphate – biochemical, fluorescence intensity, high mannose 6-phosphate, primary screen (AID 1220)
# test-conditions: recombinant PMI enzyme, coupled fluorescence intensity; at 20 µM; active compounds read high
The campaign covered roughly 190,000 compounds. About 1,300 (0.68%) were called active. What follows is part of a selection rich in actives, with near analogues and random picks from the rest.
measured-attribute: inhibition (%)
One number for each entry, in %.

molecule	inhibition (%)
COCCNC(=O)C1CCCN(c2nn3c(=O)cc(C)nc3s2)C1 (stereo unspecified)	7.2
N#C/C(=C\c1ccc(-c2ccccc2[N+](=O)[O-])o1)C(=O)Nc1nc(-c2cccs2)cs1	53.1
CC(C)CC(=O)OCc1cn(-c2ccccc2)nn1	-8.7

List the reported inhibition of each molecule below.
1. COc1ccc(S(=O)(=O)c2ccc(OC)cc2)cc1
2. c1ccc(-c2cc(-c3nc4ccccc4[nH]3)c3ccccc3n2)cc1
3. CC(=O)N1CCN=C1SCc1ccc(C)cc1

Result:
6.7
12.1
5.8

---

# target-desc: Mannose-6-phosphate isomerase (Homo sapiens)
# method-description: MPI inhibition at elevated mannose 6-phosphate – biochemical, fluorescence intensity, high mannose 6-phosphate, primary screen (AID 1220)
# test-conditions: recombinant PMI enzyme, coupled fluorescence intensity; at 20 µM; active compounds read high
Screen size: about 190,000 compounds; about 1,300 (0.68%) were called active. The sample as a whole holds a higher share of actives than the screen did.
Field: inhibition. Provide a value for each of the compounds that follow.

Take a look at these entries with their results.
compound	measured-attribute	result
O=C(COC(=O)Cc1ccccc1[N+](=O)[O-])NCC1CCCCC1	inhibition	-5.7% (inactive)
CCOC(=O)c1nn(-c2ccccc2)c(=O)c2c(N)scc12	inhibition	63.3% (active)

List the reported inhibition of each compound below.
1. COc1ccc(/C=N/NC(=O)c2nn(-c3ccc(C)c(C)c3)c(=O)c3ccccc23)cc1
2. C/C(=N/Nc1nc(-c2ccccc2)cc(-c2ccccc2)n1)c1ccc(N)cc1

Result:
22.6% (inactive)
3.6% (inactive)

List the reported inhibition of each compound below.
1. COc1ccccc1C(=O)Nc1cc2cc(Cl)ccc2oc1=O
2. CCOC(=O)c1c2ccc(OCC(=O)N/N=C/c3ccc(Cl)cc3)cc2n2ccccc12

Result:
-8% (inactive)
48.6% (inactive)

---

# target-desc: Mannose-6-phosphate isomerase (Homo sapiens)
# method-description: MPI inhibition at elevated mannose 6-phosphate – biochemical, fluorescence intensity, high mannose 6-phosphate, primary screen (AID 1220)
# test-conditions: recombinant PMI enzyme, coupled fluorescence intensity; at 20 µM; active compounds read high
Hit rate of the full screen: of about 190,000 compounds, about 1,300 (0.68%) were called active. The list comes from a sample in which actives are over-represented; it also holds close analogues and randomly drawn compounds.
Label yes (1) for high-side inhibition (at or above 20%) and no (0) for low-side inhibition (below it).

Answered cases to consult:
compound	target-desc	group
COC(=O)C1=C(C)N(Cc2ccc(C)cc2)C(=O)/C1=C\c1cc(OC)c(OC)c(OC)c1	Mannose-6-phosphate isomerase (Homo sapiens)	yes (1)
Cc1c(Cl)c([N+](=O)[O-])nn1CC(=O)Nc1ccc2c(c1)OCO2	Mannose-6-phosphate isomerase (Homo sapiens)	no (0)
Cn1c(=O)c2c(nc(N3CCCC3)n2CC(O)CO)n(C)c1=O (stereo not given)	Mannose-6-phosphate isomerase (Homo sapiens)	no (0)
O=C(Nc1cccn(Cc2c(F)cccc2Cl)c1=O)NC1CCCCC1	Mannose-6-phosphate isomerase (Homo sapiens)	no (0)
COC(=O)C1=C(C)N(CCc2ccc(OC)c(OC)c2)C(=O)/C1=C\c1ccc(O)cc1	Mannose-6-phosphate isomerase (Homo sapiens)	no (0)

Shifting focus to the compound that follows.
Query: Decide: is the reported value of inhibition for COC(=O)C1=C(C)N(CCc2ccc(OC)c(OC)c2)C(=O)/C1=C\N(C)C equal to or greater than 20%?
Result: no (0)

---

# target-desc: Mannose-6-phosphate isomerase (Homo sapiens) (UniProt P34949)
# Sequence (P34949 whole entry, looked up): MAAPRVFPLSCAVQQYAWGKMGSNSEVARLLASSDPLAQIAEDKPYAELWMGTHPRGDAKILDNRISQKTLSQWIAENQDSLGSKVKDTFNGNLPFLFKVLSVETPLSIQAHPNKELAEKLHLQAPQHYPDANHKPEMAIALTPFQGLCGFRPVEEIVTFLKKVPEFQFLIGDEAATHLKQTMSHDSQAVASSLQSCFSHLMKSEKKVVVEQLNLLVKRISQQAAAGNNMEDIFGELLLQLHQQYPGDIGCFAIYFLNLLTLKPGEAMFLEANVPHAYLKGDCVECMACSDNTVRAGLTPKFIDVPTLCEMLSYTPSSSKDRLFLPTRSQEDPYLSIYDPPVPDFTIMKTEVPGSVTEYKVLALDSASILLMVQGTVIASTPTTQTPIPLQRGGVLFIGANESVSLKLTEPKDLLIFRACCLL
# method-description: MPI inhibition at elevated mannose 6-phosphate – biochemical, fluorescence intensity, high mannose 6-phosphate, primary screen (AID 1220)
# test-conditions: recombinant PMI enzyme, coupled fluorescence intensity; at 20 µM
Screen size: about 190,000 compounds; about 1,300 (0.68%) were called active. Rule as the data show it: active = inhibition above about 50%; inactive = the rest. This excerpt belongs to a sample that is enriched for actives.
Outcome field: choose from active, inactive

compound	group
COc1cc(N)cc(NC(=O)c2ccncc2)c1	active
CCOC(=O)c1ccc(S(=O)(=O)N2CCN(S(=O)(=O)CC)CC2)cc1	inactive

Query: What did the test return for Cc1ccc(CN(Cc2cc3cc4c(cc3[nH]c2=O)OCCO4)Cc2nnnn2Cc2ccco2)cc1 ?
Result: inactive

Query: Okay, and COc1cccc(NC(=O)c2ccncc2)c1 ?
Result: inactive

Query: Okay, and COc1cc(NC(=S)NCCC(c2ccccc2)c2ccccc2)c(OC)cc1Cl ?
Result: inactive

Query: Okay, and CCC(C)N(C(=O)CSc1nc(-c2ccccc2)cs1)C1CCS(=O)(=O)C1 (stereo not given) ?
Result: inactive

Query: Okay, and Cc1[nH][nH]c(=O)c1C(c1c(C)[nH][nH]c1=O)c1cn(C)c2ccccc12 ?
Result: active

Query: Okay, and COc1cc(CN2CCN(Cc3ccc([N+](=O)[O-])cc3)CC2)c([N+](=O)[O-])cc1OC ?
Result: active

Query: Okay, and Cc1[nH][nH]c(=O)c1C(c1c(C)[nH][nH]c1=O)c1cn(Cc2ccc(Cl)c(Cl)c2)c2ccccc12 ?
Result: active

Query: Okay, and CCOC(=O)C1CCN(C(=O)c2ccc3c(c2)OCO3)CC1 ?
Result: inactive

---

Field: inhibition. Provide a value for each of the compounds that follow.
# target-desc: Mannose-6-phosphate isomerase (Homo sapiens) (UniProt P34949)
# method-description: MPI inhibition at elevated mannose 6-phosphate – biochemical, fluorescence intensity, high mannose 6-phosphate, primary screen (AID 1220)
# test-conditions: recombinant PMI enzyme, coupled fluorescence intensity; at 20 µM; active compounds read high
The whole screen tested about 190,000 compounds, of which about 1,300 (0.68%) were called active. Many of the other results were omitted from the sample, so actives are more common in it than they were.
Answers are plain numbers, in %.

compound	unit-spec	inhibition
CC(C)(C)C(=O)NC(Nc1cccc2cccnc12)C(Cl)(Cl)Cl (stereo not drawn)	%	60.1

List the reported inhibition of each compound below.
1. CC(=O)c1cccc(NC(=O)C(=O)Nc2cccc3ccccc23)c1
2. COc1ccc(N/C(C)=C/C(=O)c2ccccc2)cc1

Result:
-6.5
14.3

---

# target-desc: Mannose-6-phosphate isomerase (Homo sapiens)
# method-description: MPI inhibition at elevated mannose 6-phosphate – biochemical, fluorescence intensity, high mannose 6-phosphate, primary screen (AID 1220)
# test-conditions: recombinant PMI enzyme, coupled fluorescence intensity; at 20 µM
Out of some 190,000 compounds screened, about 1,300 (0.68%) were called active. Cut-off read from the data, not from the text of the source: active = inhibition above about 50%; inactive = the rest. What follows is part of a selection rich in actives, with near analogues and random picks from the rest.
Outcome field: choose from t = active, f = inactive

Answered cases to consult:
compound	group
CC(CC(=O)O)Nc1ccccc1O (centres undefined)	f
CC(=O)N1CCC(=NNS(=O)(=O)c2ccc(C)c([N+](=O)[O-])c2)CC1	f
CCOc1ccc(NC(=O)CSc2n[nH]c(=O)n2-c2ccccc2)cc1	f

Query: What did the test return for COc1ccc(-n2c(C)cc(/C=C/c3nc(O)c([N+](=O)[O-])c(=O)[nH]3)c2C)cc1 ?
Result: f

Query: Okay, and COc1ccc(N2CCn3c2nc2c3c(=O)n(CCCc3ccccc3)c(=O)n2C)cc1 ?
Result: f

Query: Okay, and Cc1cc(N2CCCCC2)ccc1[N+](=O)[O-] ?
Result: f
